These data points were gathered from patent US20250011363A1.

# Test target: acetylcholine receptor
# Assay name: SPR, AchR immobilised on chip, peptide 10 uM
Could you please report measured Binding affinity (RU) for the items listed next?
Provide the measurement as a number trailed by its unit.

KECFK [5mer-823]    26 RU
KHCWK [5mer-1139]    28 RU
KFCIR [5mer-808]    13 RU
RMPAK [5mer-1145]    25 RU

List reported Binding affinity (RU) for each of these binders:
1. KCSMK [5mer-1133]
2. KKQLLR [6mer-1-211]
3. KRWRLR [6mer-1-205]

Response:
["23 RU", "123 RU", "133 RU"]

Note to self: Binding affinity (RU) recorded for KTHKK [5mer-1102] was 20 RU
